# Tested on: TLR2 induced IL-6 in peripheral blood mononuclear cells (PBMCs)
# ASSAY SUMMARY: PBMC TLR2 Induced IL-6 Assay
# Type: cell-based, human
# DETAILS: Homo sapiens, PBMC, human PBMCs, lipoteichoic acid stimulated, IL-6 by ELISA; read-out: Cell EC50
pEC50: −log10 of the molar value.
MEASURED PARAMETER: pEC50

CC(C)(O)[C@H](F)CNC(=O)c1cnc(-n2ccc3cc(C#N)cnc32)cc1NCCC(F)(F)F :: 6.81
CC(C)Nc1cc(-n2ccc3cc(C#N)cnc32)ncc1C(=O)N[C@H]1CC[C@@](F)(c2nccn2C)CC1 :: 6.73
CC(C)CC(C)Nc1cc(-n2ccc3cc(C#N)cnc32)ncc1C(=O)NC[C@@H](F)C(C)(C)O (single isomer, unassigned) :: 6.12
[2H]C([2H])([2H])OC(C)(C)[C@H](F)CNC(=O)c1cnc(-n2ccc3cc(C#N)cnc32)cc1NC(C)C :: 7.38
